- Test system: NCI60
- assay_info: Antitumor activity against human NCI60 cells at 1 uM
- Format: functional, cell-based
The source made the active and inactive calls. The rule behind the calls is not given here.
Valid outcomes are listed here; reply with one: 1 (yes) (active), 0 (no) (inactive)

>  <compound>
COc1ccc(C2Nc3nc(SC)n(C)c(=O)c3NC3=C2C(=O)c2ccccc23)cc1 (configuration not stated)

>  <assigned_label>
0 (no)

$$$$
>  <compound>
CSc1nc2c(c(=O)[nH]1)NC1=C(C(=O)c3ccccc31)C(c1ccc(F)cc1)N2 (configuration not stated)

>  <assigned_label>
1 (yes)

$$$$

Query :: In this assay, the call recorded for COc1ccc(C2Nc3nc(OC)n(C)c(=O)c3NC3=C2C(=O)c2ccccc23)cc1 (configuration not stated) was what?
Result :: 0 (no)

Query :: In this assay, the call recorded for COc1ccc(C2Nc3nc(SC)[nH]c(=O)c3NC3=C2C(=O)c2ccccc23)cc1 (configuration not stated) was what?
Result :: 0 (no)

Query :: In this assay, the call recorded for CSc1nc2c(c(=O)[nH]1)NC1=C(C(=O)c3ccccc31)C(c1ccccc1)N2 (configuration not stated) was what?
Result :: 1 (yes)

Query :: In this assay, the call recorded for CSc1nc2c(c(=O)n1C)NC1=C(C(=O)c3ccccc31)C(c1ccccc1)N2 (configuration not stated) was what?
Result :: 0 (no)

Query :: In this assay, the call recorded for COc1nc2c(c(=O)n1C)NC1=C(C(=O)c3ccccc31)C(c1ccccc1)N2 (configuration not stated) was what?
Result :: 0 (no)
